From: patent US20240425482A1

// Ki lookup, one value per entry
Target: DDR2 (Homo sapiens (Human), UniProt Q16832)
Sequence (Q16832 22-855): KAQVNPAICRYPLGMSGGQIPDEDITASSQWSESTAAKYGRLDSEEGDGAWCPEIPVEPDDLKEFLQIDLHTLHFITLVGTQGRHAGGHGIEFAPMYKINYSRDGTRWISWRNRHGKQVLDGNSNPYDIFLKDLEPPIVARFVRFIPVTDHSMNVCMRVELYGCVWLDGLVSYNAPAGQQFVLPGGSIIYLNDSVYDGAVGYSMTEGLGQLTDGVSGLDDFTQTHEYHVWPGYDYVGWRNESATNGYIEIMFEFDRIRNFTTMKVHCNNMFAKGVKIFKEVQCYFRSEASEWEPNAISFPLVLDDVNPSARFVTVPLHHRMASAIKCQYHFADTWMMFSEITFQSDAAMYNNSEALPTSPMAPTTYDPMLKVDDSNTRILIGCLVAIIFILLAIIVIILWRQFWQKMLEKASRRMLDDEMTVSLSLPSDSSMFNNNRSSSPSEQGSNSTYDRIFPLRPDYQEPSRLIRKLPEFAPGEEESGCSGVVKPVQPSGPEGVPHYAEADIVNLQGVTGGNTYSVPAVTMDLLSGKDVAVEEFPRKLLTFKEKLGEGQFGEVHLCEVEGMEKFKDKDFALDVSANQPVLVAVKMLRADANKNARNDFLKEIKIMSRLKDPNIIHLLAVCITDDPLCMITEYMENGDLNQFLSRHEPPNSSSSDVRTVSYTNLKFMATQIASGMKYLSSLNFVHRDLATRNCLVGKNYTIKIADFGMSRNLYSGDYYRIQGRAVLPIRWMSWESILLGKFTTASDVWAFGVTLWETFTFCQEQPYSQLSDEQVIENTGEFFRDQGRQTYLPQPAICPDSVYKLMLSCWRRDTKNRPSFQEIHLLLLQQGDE
Assay: DDR2 LanthaScreen Europium Kinase Binding assay
Details: binding; 5 nM DDR2, 10 nM Kinase Tracer 178, 1 hour at rt; Ki from IC50 by Cheng-Prusoff; read-out: Ki DDR2

- Cc1ccc(C(=O)Nc2cccc(C(F)(F)F)c2)cc1C1CCN(c2cncc(N3CCOCC3)c2)C1 (stereo not shown): 25 to 60 nM
- Cc1ccc(C(=O)Nc2cccc(C(F)(F)F)c2)cc1[C@@H]1CCN(c2cccnc2)C1: < 10 nM
- CNC(=O)c1cc(N2CCC(c3cc(C(=O)Nc4cccc(C(F)(F)F)c4)ccc3C)C2)ccn1 (stereo not shown): < 10 nM
- Cc1ccc(C(=O)Nc2cccc(C(F)(F)F)c2)cc1C1CCN(c2ccnc(C(N)=O)c2)C1 (single isomer, unassigned) [Example 55]: 25 to 60 nM

Short answer for Cc1ccc(C(=O)Nc2cccc(C(F)(F)F)c2)cc1C1CCN(C(=O)c2cccnc2)C1 (stereo not shown) : Ki was < 10 nM

Sure, the documented Ki for Cc1ccc(C(=O)Nc2cccc(C(F)(F)F)c2)cc1[C@H]1CCN(c2cccnc2)C1 is 25 to 60 nM

Given item Cc1ccc(C(=O)Nc2cc(CN3CCCC3)cc(C(F)(F)F)c2)cc1[C@@H]1CCN(c2cncc(C(N)=O)c2)C1 , the value recorded as its Ki is < 10 nM
